MEASURED ON: HLA-A*01:01 (human)
TEST: UV peptide exchange + HLA class I ELISA
ASSAY CONTEXT: remark: other sources report otherwise
MEASUREMENT NAME: exchange rate vs Pos peptide (%)
The reply should be a number in %, with the unit left off.

The recorded exchange rate vs Pos peptide for IPVLTRWPL (here or on the partner: biotinylated heavy chain) [P19 9-mer peptide (TMEM222-LOC644961 fusion)] is 5.2

Entry YLRRQKRLK (here or on the partner: biotinylated heavy chain) [P60 9-mer peptide (FOXA1.p.F266L)] , exchange rate vs Pos peptide reported as 3.1

The reported exchange rate vs Pos peptide of the binder CYLGRQKRF (here or on the partner: biotinylated heavy chain) [P61 9-mer peptide (FOXA1.p.R261G)] was 1.7

Reported exchange rate vs Pos peptide of IVWWCPMSR (here or on the partner: biotinylated heavy chain) [P98 9-mer peptide (TP53 (R213D) frameshift)] : 2.5
